Origin of measurements: patent US20140205537A1

# MEASUREMENT TARGET: IRAK4 (Homo sapiens, UniProt Q9NWZ3)
# Sequence (Q9NWZ3 1-460): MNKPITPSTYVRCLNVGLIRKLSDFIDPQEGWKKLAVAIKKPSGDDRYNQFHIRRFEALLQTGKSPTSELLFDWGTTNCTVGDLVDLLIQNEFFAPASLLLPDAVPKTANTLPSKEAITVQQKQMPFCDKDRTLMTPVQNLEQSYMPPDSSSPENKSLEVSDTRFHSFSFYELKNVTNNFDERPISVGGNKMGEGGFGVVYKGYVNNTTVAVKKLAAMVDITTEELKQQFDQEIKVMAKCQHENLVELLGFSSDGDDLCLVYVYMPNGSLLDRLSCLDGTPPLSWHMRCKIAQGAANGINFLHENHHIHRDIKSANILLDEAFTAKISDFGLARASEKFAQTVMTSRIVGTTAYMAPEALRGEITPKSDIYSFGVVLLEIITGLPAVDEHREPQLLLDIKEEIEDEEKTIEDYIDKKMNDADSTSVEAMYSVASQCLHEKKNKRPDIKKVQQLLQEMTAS
MEASURED PARAMETER: IC50 (µM)
The reply should be a number in µM, with the unit left off.

Please give the measured IC50 for this compound: COc1ccc2c(c1)/C(=C/c1cnc(C(C)C)[nH]1)C(=O)N2 [Compound 12]
3.44
